// provenance: patent US20240368181A1

- System: DMS-114 (FGFR1 overexpression) cells
- method.description: cell proliferation assay (CellTiterGlo), DMS-114 cells
- Format: cell-based
- applied.conditions: Homo sapiens, DMS-114, 72 h
measurement.kind: IC50

molecule=Cc1nc2ccc(Oc3ccc4ncc(-c5cnn(C[C@H](C)O)c5)nc4c3Cl)c(F)c2[nH]1 result="100 to 400 nM"
molecule=Cc1nc2ccc(Oc3ccc4ncc(-c5cnn(CC6(O)CC6)c5)nc4c3N3CCOCC3)cc2[nH]1 result="≥ 400 nM"
molecule=CC(=O)N1CC=C(c2c(Oc3ccc4nc(C)[nH]c4c3)ccc3ncc(-c4cnn(CC5CC(F)(F)C5)c4)nc23)C1 result="≥ 400 nM"
molecule="Cc1nc2ccc(Oc3ccc4ncc(-c5cnn(CC6CCN(C)CC6(F)F)c5)nc4c3Cl)cc2[nH]1 (stereo not drawn)" result="≥ 400 nM"
molecule=Cc1nc2ccc(Oc3ccc4ncc(-c5cnn(C6CCNCC6)c5)nc4c3C)cc2[nH]1 result="100 to 400 nM"
molecule=Cc1nc2ccc(Oc3ccc4ncc(-c5cnn(CC6CC(F)(F)C6)c5)nc4c3C3=CC(C)(C)OC3(C)C)cc2[nH]1 result="100 to 400 nM"
